B1: library; the commonest letter at each place (parent)
chain: MKPVTLYDVAEYAGVSYQTVSRVVNQASHVSAKTREKVEAAMAELNYIPNRVAQQLAGKQSLLIGVATSSLALHAPSQIVAAIKSRADQLGASVVVSMVERSGVEACKAAVHNLLAQRVSGLIINYPLDDQDAIAVEAACTNVPALFLDVSDQTPINSIIFSHEDGTRLGVEHLVALGHQQIALLAGPLSSVSARLRLAGWHKYLTRNQIQPIAEREGDWSAMSGFQQTMQMLNEGIVPTAMLVANDQMALGAMRAITESGLRVGADISVVGYDDTEDSSCYIPPLTTIKQDFRLLGQTSVDRLLQLSQGQAVKGNQLLPVSLVKRKTTLAPNTQTASPRALADSLMQLARQVSRLESGQ

variants of: B1; settings: with IPTG
Decision: EC50 for IPTG (log10 µmol/L) beneath 3 gives 1; EC50 for IPTG (log10 µmol/L) meeting or exceeding 3 gives 0.

Quick check: does G200C have EC50 for IPTG (log10 µmol/L) under 3?
1

Bench note: check whether F161L shows EC50 for IPTG (log10 µmol/L) below 3
0

Is 3 strictly greater than the variant's reported EC50 for IPTG (log10 µmol/L)? variant: L296R
0

Please check: EC50 for IPTG (log10 µmol/L) for S70R Q181H , strictly under 3 or not?
1

Consider T68I . Does its EC50 for IPTG (log10 µmol/L) lie strictly below 3?
1

I'd appreciate it if you could check whether A109E D165V G166A R255C E259G has EC50 for IPTG (log10 µmol/L) smaller than 3.
1

Lab note: confirm whether the reported EC50 for IPTG (log10 µmol/L) for this variant is below 3, equality not counting. variant: V136E L169P
0

Field: below-cutoff. Rule: recorded EC50 for IPTG (log10 µmol/L) strictly less than 3. Subject: I160N R263S L305Q
1

Item P76Q V150A N157D Q181H I210L M254T I283N : EC50 for IPTG (log10 µmol/L) beneath 3, strictly?
1

is_below(EC50 for IPTG (log10 µmol/L), 3) for S70R N208Y ?
1

State whether 3 exceeds EC50 for IPTG (log10 µmol/L) recorded for G91D V94A R101G S158C T167M E172D A176S F226Y T276S T299A .
1

Input N113D D132N T154R M242I V313A K314N R340S ; condition: EC50 for IPTG (log10 µmol/L) strictly below 3. Does it hold?
1

Is 3 strictly greater than the variant's reported EC50 for IPTG (log10 µmol/L)? variant: S70R V96E T154I S158R V238D M254I V264I
0

Does the reported EC50 for IPTG (log10 µmol/L) of L56M D130E stay below 3?
1

Threshold test, EC50 for IPTG (log10 µmol/L) < 3: Q60R N113S R207G R216G V271M L307I A350T
1

Ref: the supplement of paper PMC10057847
